// reported solubility kinetic per item
# assay text: Kinetic aqueous solubility of the compound
# Type: physicochemical
# conditions used: buffer; read-out: Kinetic_solubility

Consider the worked cases shown below.
compound | solubility kinetic
CC1=C(C(=O)NCc2cnn(C)c2)[C@@H](c2ccc(C)cc2Cl)N=C(Nc2nc3cccc(N)c3o2)N1 | 21.9 µg/mL
COC(=O)c1ccc(NC(=O)C2=C(C)NC(Nc3nc4ccccc4o3)=NC2c2ccccc2Cl)cc1 (stereo not given) | < 1 µg/mL
CC1=C(C(=O)Nc2nncs2)C(c2ccccc2C)N=C(Nc2nc3ccccc3o2)N1 (stereo not given) | < 1 µg/mL

Prompt: Consider the compound shown here: CC1=C(C(=O)NCc2cccc(CO)c2)C(c2ccccc2Cl)N=C(Nc2nc3ccccc3o2)N1 (stereo not given) What is its recorded solubility kinetic?
Response: < 1 µg/mL

Prompt: Consider the compound shown here: CC1=C(C(=O)Nc2cc(C(=O)O)ccn2)C(c2ccc(-n3ccnc3)cc2Cl)N=C(Nc2nc3ccc(F)cc3o2)N1 (stereo not given) What is its recorded solubility kinetic?
Response: > 87 µg/mL

Prompt: Consider the compound shown here: CC1=C(C(=O)Nc2nncs2)C(c2ccccc2Br)N=C(Nc2nc3ccccc3o2)N1 (stereo not given) What is its recorded solubility kinetic?
Response: < 1 µg/mL

Prompt: Consider the compound shown here: CC1=C(C(=O)Nc2cc(C(=O)O)ccn2)C(c2ccccc2Cl)N=C(Nc2nc3cccc(Cl)c3o2)N1 (stereo not given) What is its recorded solubility kinetic?
Response: 57.5 µg/mL

Prompt: Consider the compound shown here: CC1=C(C(=O)Nc2cc(C(=O)O)ccn2)C(c2cccc(Cl)c2Cl)N=C(Nc2nc3ccc(F)cc3o2)N1 (stereo not given) What is its recorded solubility kinetic?
Response: 55.5 µg/mL

Prompt: Consider the compound shown here: O=C1CC(C(=O)NCCO)CC2=C1C(c1ccccc1Cl)N=C(Nc1nc3ccccc3o1)N2 (stereo not given) What is its recorded solubility kinetic?
Response: 29 µg/mL

Prompt: Consider the compound shown here: CC1=C(C(=O)Nc2ccccc2O)C(c2ccccc2Cl)N=C(Nc2nc3ccccc3o2)N1 (stereo not given) What is its recorded solubility kinetic?
Response: < 1 µg/mL
